System: Zymoseptoria tritici (SEPTTR-184)
assay-details: Cyp51 dsRNA tile (fragment) foliar application bioassay (Example 6)
Type: in vivo
cond: 1 day protectant; rate 3.125 ppm; average of 2 trials
Experimental: The 200 ppm concentration for each treatment was prepared by adding the calculated volume of the corresponding dsRNA solution in TE buffer. […] A non-target dsRNA control (YFP), a TE/phosphate buffer control, disease pressure control, and clean plant control were included. These plants were inoculated with an aqueous spore suspension of Zymoseptoria tritici either prior to or after fungicidal treatments. […]
In this section we review reported Disease Control (%) SEPTTR-184 1DP values for a set of molecules.
Express your answer in %, writing the number without its unit.

molecule	Disease Control (%) SEPTTR-184 1DP
MgCyp51-T8: dsRNA tile of Zymoseptoria tritici Cyp51, 242 bp, location 1151-1392 (nucleic acid, listed as Zymoseptoria tritici) TTCTGCGCAAGGTCAAGTCTCCCATGCCCATCGAAGGTACGGCATACGTCATTCCAACCACCCACACTCTTCTGGCCGCTCCGGGCACAACGAGCCGCATGGACGAGCACTTTCCCGACTGCCTCCATTGGGAGCCGCATCGATGGGACGAGAGCCCGTCCGAGAAATACAAGCACCTGTCCCCGACGACTGCCCTAGGAAGCATCGCCGAGGAGAAAGAAGACTATGGCTACGGCCTGGTA	46

// switching to the query molecule
Query :: Give the measured Disease Control (%) SEPTTR-184 1DP of MgCyp51-T6: dsRNA tile of Zymoseptoria tritici Cyp51, 280 bp, location 881-1160 (nucleic acid, listed as Zymoseptoria tritici) ATGCCATTCCCGACAAGGAGATTGCTCATATGATGATTGCGCTGCTCATGGCCGGCCAGCACTCTTCATCTGCGACCGAGTCCTGGATCACTCTCCGCCTCGCATCCCGCCCCGACATCCAAGACGAACTCCTCCAAGAACAAAAGGATATGCTCGGTGTGAACGCCGACGGCAGTATCAAGGAGCTCACATACGCCAACCTCTCGAAACTCACCCTCCTCAATCAAGTCGTCAAAGAAACCCTTCGTATTCACGCTCCAATCCACTCCATTCTGCGCAA .
Result :: 50
